- assay_target: human C1 (Homo sapiens)
- Construct: substrate fluid phase human C2, in presence of C4
- Sequence (P09871 16-688): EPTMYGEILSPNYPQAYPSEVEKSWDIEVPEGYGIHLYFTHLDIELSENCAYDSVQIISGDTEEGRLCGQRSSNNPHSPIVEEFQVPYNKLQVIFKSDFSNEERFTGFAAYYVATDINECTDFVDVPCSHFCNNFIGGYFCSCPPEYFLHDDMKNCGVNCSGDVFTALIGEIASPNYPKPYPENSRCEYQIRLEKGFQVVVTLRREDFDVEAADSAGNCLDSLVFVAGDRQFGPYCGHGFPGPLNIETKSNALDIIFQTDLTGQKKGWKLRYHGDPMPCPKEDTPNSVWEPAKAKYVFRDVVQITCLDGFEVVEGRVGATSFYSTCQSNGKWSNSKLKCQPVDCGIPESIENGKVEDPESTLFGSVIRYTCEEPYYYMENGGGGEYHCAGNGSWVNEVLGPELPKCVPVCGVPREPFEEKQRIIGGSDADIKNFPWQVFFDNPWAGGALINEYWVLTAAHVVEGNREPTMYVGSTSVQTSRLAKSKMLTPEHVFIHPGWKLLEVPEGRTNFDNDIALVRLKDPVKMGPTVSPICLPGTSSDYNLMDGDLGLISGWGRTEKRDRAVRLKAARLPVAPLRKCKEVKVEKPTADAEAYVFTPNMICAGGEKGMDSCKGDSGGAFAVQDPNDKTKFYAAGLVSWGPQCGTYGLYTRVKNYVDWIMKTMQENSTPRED
- Sequence (P00736 18-705 partner): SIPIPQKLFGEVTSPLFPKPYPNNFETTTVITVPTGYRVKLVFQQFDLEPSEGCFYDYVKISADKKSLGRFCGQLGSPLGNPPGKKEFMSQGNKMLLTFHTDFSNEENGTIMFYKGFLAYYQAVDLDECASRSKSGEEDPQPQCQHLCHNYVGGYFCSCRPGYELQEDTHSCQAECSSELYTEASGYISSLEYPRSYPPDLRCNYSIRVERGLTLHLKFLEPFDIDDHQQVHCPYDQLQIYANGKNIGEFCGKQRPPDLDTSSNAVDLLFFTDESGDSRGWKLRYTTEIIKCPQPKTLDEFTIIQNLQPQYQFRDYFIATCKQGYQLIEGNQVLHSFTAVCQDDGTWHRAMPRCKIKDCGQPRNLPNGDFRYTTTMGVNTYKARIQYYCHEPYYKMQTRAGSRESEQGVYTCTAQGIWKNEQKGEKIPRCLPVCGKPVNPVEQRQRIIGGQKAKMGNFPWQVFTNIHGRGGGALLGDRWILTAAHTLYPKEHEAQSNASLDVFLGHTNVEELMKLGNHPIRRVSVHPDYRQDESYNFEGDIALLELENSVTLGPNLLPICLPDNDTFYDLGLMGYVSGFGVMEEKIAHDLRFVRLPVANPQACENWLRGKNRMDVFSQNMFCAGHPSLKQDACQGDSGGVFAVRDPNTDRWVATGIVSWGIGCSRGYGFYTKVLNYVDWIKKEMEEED
- Sequence (P02745 23-245 partner): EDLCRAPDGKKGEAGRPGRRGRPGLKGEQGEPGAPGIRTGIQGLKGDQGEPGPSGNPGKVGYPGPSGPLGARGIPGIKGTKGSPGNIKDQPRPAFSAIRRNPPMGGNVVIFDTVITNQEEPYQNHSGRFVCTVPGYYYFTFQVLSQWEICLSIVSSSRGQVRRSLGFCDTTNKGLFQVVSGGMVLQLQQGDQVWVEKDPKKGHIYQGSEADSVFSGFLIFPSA
- Sequence (P02746 28-253 partner): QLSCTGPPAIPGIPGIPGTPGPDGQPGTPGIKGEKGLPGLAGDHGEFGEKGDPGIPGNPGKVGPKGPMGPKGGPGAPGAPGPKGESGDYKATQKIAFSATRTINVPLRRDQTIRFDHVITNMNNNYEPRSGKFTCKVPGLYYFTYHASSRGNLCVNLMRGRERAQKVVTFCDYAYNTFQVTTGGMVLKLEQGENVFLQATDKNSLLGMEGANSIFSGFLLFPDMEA
- Sequence (P02747 29-245 partner): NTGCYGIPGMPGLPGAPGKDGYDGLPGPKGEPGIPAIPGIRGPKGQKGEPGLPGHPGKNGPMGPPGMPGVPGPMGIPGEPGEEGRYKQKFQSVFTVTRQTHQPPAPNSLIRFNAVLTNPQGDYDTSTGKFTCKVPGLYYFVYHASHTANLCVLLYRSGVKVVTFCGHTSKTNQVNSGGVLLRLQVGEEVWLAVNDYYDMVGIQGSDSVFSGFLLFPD
- method_summary: Test, Code 026 (C1 inhibitor): protection of fluid phase human C2 from activated human C1
- Assay type: biochemical
- measurement_setup: activity in wells, twofold serial dilution; higher well number indicates higher activity
The entries below come with measured C1 026* Wells values attached.

{"columns": ["line_notation", "assay_target", "recorded_measurement"],
 "data": [
  ["O=C(Nc1ccc(C(=O)Nc2cccc3cc(S(=O)(=O)O)cc(O)c23)c(S(=O)(=O)O)c1)Nc1ccc(C(=O)Nc2cccc3cc(S(=O)(=O)O)cc(O)c23)c(S(=O)(=O)O)c1", "human C1 (Homo sapiens)", "+2 Wells"],
  ["O=C(Nc1ccc(C(=O)Nc2ccc(S(=O)(=O)[O-])c3ccc(S(=O)(=O)[O-])cc23)c(S(=O)(=O)[O-])c1)Nc1ccc(C(=O)Nc2ccc(S(=O)(=O)[O-])c3ccc(S(=O)(=O)[O-])cc23)c(S(=O)(=O)[O-])c1.[Na+].[Na+].[Na+].[Na+].[Na+].[Na+]", "human C1 (Homo sapiens)", "+5 Wells"],
  ["O=C(Nc1ccc(C(=O)Nc2cc(S(=O)(=O)[O-])cc3cc(S(=O)(=O)[O-])cc(S(=O)(=O)[O-])c23)cc1)Nc1ccc(C(=O)Nc2cc(S(=O)(=O)[O-])cc3cc(S(=O)(=O)[O-])cc(S(=O)(=O)[O-])c23)cc1.[Na+].[Na+].[Na+].[Na+].[Na+].[Na+]", "human C1 (Homo sapiens)", "+4 Wells"],
  ["O=C(Nc1ccc(C(=O)Nc2cc(S(=O)(=O)O)cc3cccc(S(=O)(=O)O)c23)c(S(=O)(=O)O)c1)Nc1ccc(C(=O)Nc2cc(S(=O)(=O)O)cc3cccc(S(=O)(=O)O)c23)c(S(=O)(=O)O)c1", "human C1 (Homo sapiens)", "+5 Wells"]
]}

Query compound follows.
Reported C1 026* Wells ( `O=C(Nc1cc(C(=O)O)cc(C(=O)Nc2cc(S(=O)(=O)O)cc3cc(S(=O)(=O)O)cc(O)c23)c1)Nc1cc(C(=O)O)cc(C(=O)Nc2cc(S(=O)(=O)O)cc3cc(S(=O)(=O)O)cc(O)c23)c1` ) = +6 Wells

* * *

- Test system: shunt pathway
- method_summary: Test, Code 036 (C-Shunt inhibitor): lysis of human erythrocytes in autologous serum via shunt pathway activated by cobra venom factor
- Type: cell-based
- measurement_setup: activity in wells, twofold serial dilution; higher well number indicates higher activity
reported_endpoint: Shunt Inhibition 036* Wells

{"columns": ["line_notation", "assay_target", "Shunt Inhibition 036* Wells"],
 "data": [
  ["O=C(Nc1cc(C(=O)O)cc(C(=O)Nc2ccc(S(=O)(=O)O)c3cc(S(=O)(=O)O)cc(O)c23)c1)Nc1cc(C(=O)O)cc(C(=O)Nc2ccc(S(=O)(=O)O)c3cc(S(=O)(=O)O)cc(O)c23)c1", "shunt pathway", "+2 Wells"],
  ["COC(=O)c1cc(NC(=O)Nc2cc(C(=O)Nc3ccc(S(=O)(=O)O)c4cc(S(=O)(=O)O)cc(S(=O)(=O)O)c34)cc(C(=O)OC)c2)cc(C(=O)Nc2ccc(S(=O)(=O)O)c3cc(S(=O)(=O)O)cc(S(=O)(=O)O)c23)c1", "shunt pathway", "+1 Wells"],
  ["O=C(Nc1ccc(C(=O)Nc2cc(S(=O)(=O)[O-])cc3cc(S(=O)(=O)[O-])ccc23)c(S(=O)(=O)[O-])c1)Nc1ccc(C(=O)Nc2cc(S(=O)(=O)[O-])cc3cc(S(=O)(=O)[O-])ccc23)c(S(=O)(=O)[O-])c1.[Na+].[Na+].[Na+].[Na+].[Na+].[Na+]", "shunt pathway", "N"],
  ["O=C(Nc1ccc(C(=O)Nc2cc3ccccc3cc2C(=O)[O-])c(S(=O)(=O)[O-])c1)Nc1ccc(C(=O)Nc2cc3ccccc3cc2C(=O)[O-])c(S(=O)(=O)[O-])c1.[Na+].[Na+].[Na+].[Na+]", "shunt pathway", "N"],
  ["Cc1ccc(NC(=O)Nc2ccc(C)c(C(=O)Nc3ccc(S(=O)(=O)[O-])c4cc(S(=O)(=O)[O-])cc(O)c34)c2)cc1C(=O)Nc1ccc(S(=O)(=O)[O-])c2cc(S(=O)(=O)[O-])cc(O)c12.[Na+].[Na+].[Na+].[Na+]", "shunt pathway", "+2 Wells"],
  ["O=C(Nc1cc(C(=O)O)cc(C(=O)Nc2cc(S(=O)(=O)O)cc3cc(S(=O)(=O)O)cc(S(=O)(=O)O)c23)c1)Nc1cc(C(=O)O)cc(C(=O)Nc2cc(S(=O)(=O)O)cc3cc(S(=O)(=O)O)cc(S(=O)(=O)O)c23)c1", "shunt pathway", "+2 Wells"],
  ["CC(=O)Nc1ccc2c(S(=O)(=O)O)cc(S(=O)(=O)O)cc2c1NC(=O)c1ccc(NC(=O)Nc2ccc(C(=O)Nc3c(NC(C)=O)ccc4c(S(=O)(=O)O)cc(S(=O)(=O)O)cc34)c(S(=O)(=O)O)c2)cc1S(=O)(=O)O", "shunt pathway", "+1 Wells"],
  ["O=C(Nc1ccc(C(=O)Nc2cc(S(=O)(=O)O)cc3cccc(S(=O)(=O)O)c23)c(S(=O)(=O)O)c1)Nc1ccc(C(=O)Nc2cc(S(=O)(=O)O)cc3cccc(S(=O)(=O)O)c23)c(S(=O)(=O)O)c1", "shunt pathway", "+1 Wells"]
]}

Query compound follows.
Reported Shunt Inhibition 036* Wells ( `O=C(Nc1ccc(C(=O)Nc2ccc(S(=O)(=O)[O-])c3cc(S(=O)(=O)[O-])cc(O)c23)c(S(=O)(=O)[O-])c1)Nc1ccc(C(=O)Nc2ccc(S(=O)(=O)[O-])c3cc(S(=O)(=O)[O-])cc(O)c23)c(S(=O)(=O)[O-])c1.[Na+].[Na+].[Na+].[Na+].[Na+].[Na+]` ) = +5 Wells
